Target: human CD40 on LPS-stimulated human monocyte-derived dendritic cells (human, UniProt P25942 21-277)
Sequence (P25942 21-277 limits assumed): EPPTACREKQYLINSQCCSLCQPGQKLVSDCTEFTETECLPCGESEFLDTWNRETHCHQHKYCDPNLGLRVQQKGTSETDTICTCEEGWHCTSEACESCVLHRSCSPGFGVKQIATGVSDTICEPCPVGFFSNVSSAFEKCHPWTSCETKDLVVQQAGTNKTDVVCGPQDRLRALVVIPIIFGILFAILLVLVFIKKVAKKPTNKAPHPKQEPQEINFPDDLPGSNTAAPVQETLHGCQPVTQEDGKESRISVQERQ
Experiment: cell-based or functional assay
Each entry below carries its reported IL-6 release IC50.
observation_type: IL-6 release IC50 (µg/mL)

INSERT INTO measurements (binder, observation_type, obs_value) VALUES
  ('Human anti-CD40 antibody Ab102 (antibody, human IgG1, kappa, L234A L235A, V domains shown) VH: EVQLVESGGGLVKPGGSLRLSCAASGFTFSDYGMNWVRQAPGKGLEWIAYISSGRGNIYYADTVKGRFTISRDNAKNSLYLQMNSLRAEDTAVYYCARSWGYFDVWGQGTTVTVSS VL: DIVMTQSPDSLAVSLGERATINCKSSQSLLNRGNQKNYLTWFQQKPGQPPKLLIYWASTRESGVPDRFSGSGSGTDFTLTISSLQAEDVAVYYCQNDYTYPLTFGQGTKLEIKR', 'IL-6 release IC50', 0.18),
  ('Example 12-hydrolyzed (human), n=4 (antibody, human IgG1, kappa, L234A L235A, V domains shown, glucocorticoid drug-linker of Precursor Example 12 (maleimide, thiosuccinimide ring hydrolyzed) on cysteine thiols of reduced disulfides; n=4 per antibody; positions not given) VH: EVQLVESGGGLVKPGGSLRLSCAASGFTFSDYGMNWVRQAPGKGLEWIAYISSGRGNIYYADTVKGRFTISRDNAKNSLYLQMNSLRAEDTAVYYCARSWGYFDVWGQGTTVTVSS VL: DIVMTQSPDSLAVSLGERATINCKSSQSLLNRGNQKNYLTWFQQKPGQPPKLLIYWASTRESGVPDRFSGSGSGTDFTLTISSLQAEDVAVYYCQNDYTYPLTFGQGTKLEIKR', 'IL-6 release IC50', 0.04),
  ('Example 28-conjugated (human), n=2 (antibody, human IgG1, kappa, L234A L235A, DAR 2, V domains shown, glucocorticoid drug-linker of Precursor Example 28 (bromoacetamide) on cysteine thiols of reduced interchain disulfides; n=2 per antibody; positions not given) VH: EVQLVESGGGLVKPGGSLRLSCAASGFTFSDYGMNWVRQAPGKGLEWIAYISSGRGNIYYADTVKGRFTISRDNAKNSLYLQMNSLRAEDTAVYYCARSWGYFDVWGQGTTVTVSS VL: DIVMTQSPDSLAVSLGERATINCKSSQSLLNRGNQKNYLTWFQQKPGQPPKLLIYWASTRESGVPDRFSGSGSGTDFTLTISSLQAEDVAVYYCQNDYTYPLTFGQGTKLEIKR', 'IL-6 release IC50', 0.03),
  ('Example 28-conjugated (human), n=4 (antibody, human IgG1, kappa, L234A L235A, DAR 4, V domains shown, glucocorticoid drug-linker of Precursor Example 28 (bromoacetamide) on cysteine thiols of reduced interchain disulfides; n=4 per antibody; positions not given) VH: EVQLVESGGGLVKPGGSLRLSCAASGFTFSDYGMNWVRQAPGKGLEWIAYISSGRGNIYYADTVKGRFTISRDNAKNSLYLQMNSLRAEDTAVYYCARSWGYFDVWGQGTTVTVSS VL: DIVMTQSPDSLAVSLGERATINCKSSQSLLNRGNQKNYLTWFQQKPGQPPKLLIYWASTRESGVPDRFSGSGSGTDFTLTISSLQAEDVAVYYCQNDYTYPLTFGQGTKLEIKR', 'IL-6 release IC50', 0.05),
  ('Example 13-hydrolyzed (human), n=4 (antibody, human IgG1, kappa, L234A L235A, V domains shown, glucocorticoid drug-linker of Precursor Example 13 (maleimide, thiosuccinimide ring hydrolyzed) on cysteine thiols of reduced disulfides; n=4 per antibody; positions not given) VH: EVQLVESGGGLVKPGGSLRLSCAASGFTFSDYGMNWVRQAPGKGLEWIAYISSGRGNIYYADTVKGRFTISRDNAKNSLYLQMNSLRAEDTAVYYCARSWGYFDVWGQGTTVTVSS VL: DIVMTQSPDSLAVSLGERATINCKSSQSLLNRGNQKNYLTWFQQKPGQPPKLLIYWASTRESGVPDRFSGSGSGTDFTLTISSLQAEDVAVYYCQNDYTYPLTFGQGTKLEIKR', 'IL-6 release IC50', 0.14);
